target: UniProtKB Q14432; format: functional
Sequence (Q14432 whole entry): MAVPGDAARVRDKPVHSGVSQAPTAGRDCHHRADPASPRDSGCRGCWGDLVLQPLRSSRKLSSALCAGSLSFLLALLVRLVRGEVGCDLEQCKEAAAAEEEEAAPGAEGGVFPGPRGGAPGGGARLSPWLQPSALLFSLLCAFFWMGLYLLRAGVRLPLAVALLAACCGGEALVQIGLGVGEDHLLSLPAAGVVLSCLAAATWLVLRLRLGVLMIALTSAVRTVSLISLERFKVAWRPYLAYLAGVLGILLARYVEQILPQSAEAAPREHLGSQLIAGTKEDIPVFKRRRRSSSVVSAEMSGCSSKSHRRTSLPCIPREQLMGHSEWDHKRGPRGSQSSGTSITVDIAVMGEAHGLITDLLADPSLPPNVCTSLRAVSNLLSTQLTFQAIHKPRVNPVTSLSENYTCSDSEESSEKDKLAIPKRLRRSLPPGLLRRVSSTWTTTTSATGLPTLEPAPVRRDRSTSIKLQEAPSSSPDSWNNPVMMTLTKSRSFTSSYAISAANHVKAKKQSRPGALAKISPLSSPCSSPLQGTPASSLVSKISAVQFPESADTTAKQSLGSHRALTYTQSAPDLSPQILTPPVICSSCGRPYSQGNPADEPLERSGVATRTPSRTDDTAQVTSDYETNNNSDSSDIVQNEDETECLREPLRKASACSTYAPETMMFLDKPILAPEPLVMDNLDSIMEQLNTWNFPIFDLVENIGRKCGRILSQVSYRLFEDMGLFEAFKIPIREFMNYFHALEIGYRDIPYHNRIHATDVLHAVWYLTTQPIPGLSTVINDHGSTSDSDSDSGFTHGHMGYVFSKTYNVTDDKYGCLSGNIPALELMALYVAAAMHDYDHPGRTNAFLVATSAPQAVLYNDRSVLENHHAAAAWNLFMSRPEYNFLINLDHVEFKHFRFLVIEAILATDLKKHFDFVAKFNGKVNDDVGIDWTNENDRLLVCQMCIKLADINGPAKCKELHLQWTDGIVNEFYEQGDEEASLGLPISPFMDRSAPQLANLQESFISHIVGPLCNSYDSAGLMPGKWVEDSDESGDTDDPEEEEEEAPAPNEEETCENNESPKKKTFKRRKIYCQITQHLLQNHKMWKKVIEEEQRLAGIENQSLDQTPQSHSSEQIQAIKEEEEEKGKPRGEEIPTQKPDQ
measurement name: AC50

Reference set (10 entries):
> print(dat)
                                    compound  test.value
 1  O=C(/C=C/c1cccc(S(=O)(=O)Nc2ccccc2)c1)NO     > 30 µM
 2  Fc1ccc([C@@H]2CCNC[C@H]2COc2ccc3c(c2)OCO3)cc1     > 30 µM
 3           Cc1ccnc2c1NC(=O)c1cccnc1N2C1CC1      4.5 µM
 4  CC(CN1c2ccccc2Sc2ccccc21)N(C)C (stereo unspecified)     > 30 µM
 5  CC(C)C[C@H](NC(=O)[C@@H](O)[C@H](N)Cc1ccccc1)C(=O)O     > 30 µM
 6  C[N+](C)(C)CCOP(=O)(O)OP(=O)([O-])OC[C@H]1O[C@@H](n2ccc(N)nc2=O)[C@H](O)[C@@H]1O     > 30 µM
 7  CCOc1cc([C@@H](CS(C)(=O)=O)N2C(=O)c3cccc(NC(C)=O)c3C2=O)ccc1OC     > 30 µM
 8  CC[C@H](C)C(=O)O[C@H]1C[C@@H](C)C=C2C=C[C@H](C)[C@H](CC[C@@H]3C[C@@H](O)CC(=O)O3)[C@H]21     > 30 µM
 9  Cc1onc(-c2c(F)cccc2Cl)c1C(=O)N[C@@H]1C(=O)N2[C@@H]1SC(C)(C)[C@@H]2C(=O)O     > 30 µM
10            O=C(O)Cc1ccccc1Oc1ccc(Cl)cc1Cl     > 30 µM

Please examine the following record next.
Bench note: what AC50 did "CN(C)Cc1nnc2n1-c1ccc(Cl)cc1C(c1ccccc1)=NC2" show?
> 30 µM

###

Measured AC50 accompanies every entry in the list below.
Target: Cholecystokinin receptor type A (Homo sapiens, UniProt P32238); note: assay procedure not described here
Sequence (P32238 whole entry): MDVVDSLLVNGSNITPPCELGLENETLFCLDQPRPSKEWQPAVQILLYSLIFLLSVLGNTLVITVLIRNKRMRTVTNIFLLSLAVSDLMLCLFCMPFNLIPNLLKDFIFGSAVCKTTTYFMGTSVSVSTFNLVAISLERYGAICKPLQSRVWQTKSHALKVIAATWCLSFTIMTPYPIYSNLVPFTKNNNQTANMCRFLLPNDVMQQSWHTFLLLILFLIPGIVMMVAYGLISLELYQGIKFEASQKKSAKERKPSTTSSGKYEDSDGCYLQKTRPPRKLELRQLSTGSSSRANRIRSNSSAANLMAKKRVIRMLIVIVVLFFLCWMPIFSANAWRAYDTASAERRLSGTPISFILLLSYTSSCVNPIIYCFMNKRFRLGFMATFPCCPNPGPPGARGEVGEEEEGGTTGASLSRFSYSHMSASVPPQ

Reference set (9 entries):
> print(dat)
                                   compound  measurement.name  test.value
1           COc1ccc(C2C(=O)c3ccccc3C2=O)cc1              AC50     > 10 µM
2  COc1ccc([C@@H]2CC(=O)c3c(O)cc(O)cc3O2)cc1O              AC50     > 10 µM
3  CC(O)(CS(=O)(=O)c1ccc(F)cc1)C(=O)Nc1ccc(C#N)c(C(F)(F)F)c1 (stereo not given) [BICALUTAMIDE]              AC50     > 30 µM
4  CC1=C(/C=C/C(C)=C/C=C/C(C)=C/CO)C(C)(C)CCC1              AC50     > 10 µM
5    CNCCc1ccc(OC(=O)C(C)C)c(OC(=O)C(C)C)c1              AC50     > 30 µM
6   CCOC(=O)c1ncn2c1CN(C)C(=O)c1cc(F)ccc1-2              AC50     > 30 µM
7  CC(C(=O)O)c1ccc2c(c1)CC(=O)c1ccccc1S2 (stereo not given)              AC50     > 30 µM
8    CCc1cc2c(s1)-n1c(C)nnc1CN=C2c1ccccc1Cl              AC50     > 30 µM
9  CCOc1nc2cccc(C(=O)O)c2n1Cc1ccc(-c2ccccc2-c2nnn[nH]2)cc1              AC50     > 30 µM

Please examine the following record next.
Bench note: what AC50 did CNC[C@H](O)c1ccc(O)c(O)c1 [EPINEPHRINE] show?
> 30 µM

###

Entries below carry reported AC50 on Adenosine receptor A3 (Homo sapiens, UniProt P0DMS8).
Sequence (P0DMS8 whole entry): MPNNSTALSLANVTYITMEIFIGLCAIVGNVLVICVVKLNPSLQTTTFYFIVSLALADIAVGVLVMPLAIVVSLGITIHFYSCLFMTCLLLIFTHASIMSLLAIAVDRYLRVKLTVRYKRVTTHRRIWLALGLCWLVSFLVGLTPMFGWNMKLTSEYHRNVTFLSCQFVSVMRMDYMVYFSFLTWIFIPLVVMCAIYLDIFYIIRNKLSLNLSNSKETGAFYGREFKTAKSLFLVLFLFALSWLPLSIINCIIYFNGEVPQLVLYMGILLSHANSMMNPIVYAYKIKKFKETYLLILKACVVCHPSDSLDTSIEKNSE

Reference set (3 entries):
compound	test value
CC1(C)O[C@@H]2C[C@H]3[C@@H]4C[C@H](F)C5=CC(=O)C=C[C@]5(C)[C@@]4(F)[C@@H](O)C[C@]3(C)[C@]2(C(=O)CO)O1 [FLUOCINOLONE ACETONIDE]	> 30 µM
CCCn1cnc2c1c(=O)n(CCCCC(C)=O)c(=O)n2C	> 30 µM
Cc1ncc2c(c1O)COC2c1ccc(Cl)cc1 (stereo not drawn)	> 30 µM

Bench note: what AC50 did COc1ccc2[nH]c([S+]([O-])Cc3ncc(C)c(OC)c3C)nc2c1 (stereo not drawn) show?
2.88 µM

Repeat for the following compound: "c1ccc2c(SC3=NCCN3)c[nH]c2c1"
> 30 µM

Repeat for the following compound: "COC(=O)[C@H]1[C@H]2C[C@@H]3c4[nH]c5cc(OC)ccc5c4CCN3C[C@H]2C[C@@H](OC(=O)c2cc(OC)c(OC)c(OC)c2)[C@@H]1OC"
17.7 µM

Repeat for the following compound: CC(C(=O)O)c1cccc(Oc2ccccc2)c1 (stereo not drawn)
> 30 µM

Repeat for the following compound: CCCCC(CC)CN1CN(CC(CC)CCCC)CC(C)(N)C1 (stereo not drawn)
10.8 µM

###

target: UniProt P35348; assay type: functional, cell-based
Sequence (P35348 whole entry): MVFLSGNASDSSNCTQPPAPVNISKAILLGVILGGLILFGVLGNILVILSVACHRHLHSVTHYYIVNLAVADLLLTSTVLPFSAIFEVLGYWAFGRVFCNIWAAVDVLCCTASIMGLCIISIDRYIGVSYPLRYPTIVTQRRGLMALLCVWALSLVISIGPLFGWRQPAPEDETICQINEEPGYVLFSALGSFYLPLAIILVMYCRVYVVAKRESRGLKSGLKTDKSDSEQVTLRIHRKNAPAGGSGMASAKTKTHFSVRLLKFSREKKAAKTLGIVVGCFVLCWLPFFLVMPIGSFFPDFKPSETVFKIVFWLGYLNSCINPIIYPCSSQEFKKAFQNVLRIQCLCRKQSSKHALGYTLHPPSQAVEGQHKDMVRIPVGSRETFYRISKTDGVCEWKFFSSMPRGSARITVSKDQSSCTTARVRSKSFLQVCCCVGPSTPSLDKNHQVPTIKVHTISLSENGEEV
measurement name: AC50 (µM)
Just the number please, in µM, no unit attached.

molecule	measurement name	test value
Oc1cc(O)c(Cl)cn1	AC50	26
Oc1ccc(CCNCCCCCCNCCc2ccccc2)cc1O	AC50	1.4

Bench note: what AC50 did "O=C1c2cccc3c2[C@H](CCC3)CN1[C@@H]1CN2CCC1CC2" show?
29

Repeat for the following molecule: "COc1cc(C(=O)NS(=O)(=O)c2ccccc2C)ccc1Cc1cn(C)c2ccc(NC(=O)OC3CCCC3)cc12"
5.9

Repeat for the following molecule: O=c1[nH]c2ccccc2n1CCCN1CCN(C(c2ccccc2)c2ccccc2)CC1 [OXATOMIDE]
4.1

Repeat for the following molecule: "CC(C)NC(=N)NC(=N)Nc1ccc(Cl)c(Cl)c1"
12

Repeat for the following molecule: "COc1ccc(CN2CCN(C(c3ccc(F)cc3)c3ccc(F)cc3)CC2)c(OC)c1OC"
8.2

###

molecular target: UniProtKB P30542
Sequence (P30542 whole entry): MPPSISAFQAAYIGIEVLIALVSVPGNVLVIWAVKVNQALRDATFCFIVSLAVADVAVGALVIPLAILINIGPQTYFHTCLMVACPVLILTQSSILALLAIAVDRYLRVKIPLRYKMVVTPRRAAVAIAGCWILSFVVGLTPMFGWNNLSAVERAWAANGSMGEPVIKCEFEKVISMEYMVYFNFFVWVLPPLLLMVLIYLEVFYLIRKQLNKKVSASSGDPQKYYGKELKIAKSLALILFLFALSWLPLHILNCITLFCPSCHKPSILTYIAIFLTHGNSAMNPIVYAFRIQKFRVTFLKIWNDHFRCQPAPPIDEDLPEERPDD
Measured AC50 accompanies every entry in the list below.

> print(dat)
                                   compound         tested.on  test.value
1  CC/C=C\C/C=C\C/C=C\C/C=C\C/C=C\CCCC(=O)OCC [ICOSAPENT ETHYL]  UniProtKB P30542     > 30 µM
2  O=C(O)c1cccnc1Nc1cccc(C(F)(F)F)c1 [NIFLUMIC ACID]  UniProtKB P30542     > 10 µM
3  O=C(NCCO[N+](=O)[O-])c1cccnc1 [NICORANDIL]  UniProtKB P30542     > 30 µM
4   CNC[C@H](O)c1ccc(O)c(O)c1 [EPINEPHRINE]  UniProtKB P30542     > 30 µM
5  CN(C)CCCN1c2ccccc2CCc2ccccc21 [IMIPRAMINE]  UniProtKB P30542     > 30 µM

Bench note: what AC50 did CC(=O)[C@H]1CC[C@H]2[C@@H]3C[C@H](C)C4=CC(=O)CC[C@]4(C)[C@H]3[C@@H](O)C[C@]12C [MEDRYSONE] show?
> 10 µM

Repeat for the following compound: CC(O)(CS(=O)(=O)c1ccc(F)cc1)C(=O)Nc1ccc(C#N)c(C(F)(F)F)c1 (stereo not drawn) [BICALUTAMIDE]
> 30 µM

Repeat for the following compound: Cn1cc(C(=O)[C@@H]2CCc3nc[nH]c3C2)c2ccccc21 [RAMOSETRON]
> 30 µM

Repeat for the following compound: CCN1CCCC1CNC(=O)c1cc(S(=O)(=O)CC)ccc1OC (stereo not drawn) [SULTOPRIDE]
> 30 µM

Repeat for the following compound: COc1cc(C(C)=O)ccc1OCCCN1CCC(c2noc3cc(F)ccc23)CC1 [ILOPERIDONE]
> 30 µM

Repeat for the following compound: "CCOc1nc2cccc(C(=O)O)c2n1Cc1ccc(-c2ccccc2-c2nnn[nH]2)cc1"
> 30 µM

Repeat for the following compound: "C[N+](C)(C)CCOP(=O)([O-])OC[C@H](O)CO"
> 30 µM

Repeat for the following compound: CCOC(=O)C1=C(C)NC(C)=C(C(=O)OCC)C1c1ccccc1/C=C/C(=O)OC(C)(C)C [LACIDIPINE]
> 30 µM

Repeat for the following compound: CC(C(=O)O)c1ccc2c(c1)CC(=O)c1ccccc1S2 (stereo not drawn) [ZALTOPROFEN]
> 30 µM

Repeat for the following compound: C/C=C(/C(=C/C)c1ccc(O)cc1)c1ccc(O)cc1 [DIENESTROL]
> 30 µM

Where do these numbers come from? They come from ChEMBL document CHEMBL5291721.
